The reported measurements were obtained from PubChem BioAssay.

# assay.notes: plasmodial surface anion channel blockers, osmotic lysis – cell-based, P. falciparum Indochina, OD700, 1 h, primary screen (AID 1154)
# condition.label: P. falciparum Indochina infected RBC osmotic lysis, higher = more signal, called active from +8 up or from −8 down
measured.parameter: z-score
Could you keep your reply to the number by itself?

Previously resolved entries follow.
COC(=O)[C@@]1(Cc2ccc(F)cc2)[C@@H]2[C@@H](CC(=O)[C@H]2CC(=O)C(=O)N2CCCC2)CN1C(=O)c1ccccc1 1.76
COC(=O)[C@@]1(Cc2ccc(F)cc2)[C@H]2c3cc(C(=O)N(C)C)n(Cc4ccc(C)c(F)c4F)c3C[C@H]2CN1C(=O)c1ccccc1 5.08
COC(=O)[C@@]1(Cc2ccc(OC)cc2)[C@H]2c3cc(C(=O)N4CCCC4)n(CCF)c3C[C@H]2CN1C(=O)c1ccccc1 10.4

What z-score value was documented for this compound, O=C(NCc1ccccc1)[C@]1(Cc2ccccc2)N=C(c2ccc(OCCCO)cc2)O[C@@H]1c1ccccc1 ?
30.1
